# EXPERIMENTAL SYSTEM: hsst3 (Homo sapiens)
# Construct: expressed in transfected cells
# Sequence (P32745 whole entry): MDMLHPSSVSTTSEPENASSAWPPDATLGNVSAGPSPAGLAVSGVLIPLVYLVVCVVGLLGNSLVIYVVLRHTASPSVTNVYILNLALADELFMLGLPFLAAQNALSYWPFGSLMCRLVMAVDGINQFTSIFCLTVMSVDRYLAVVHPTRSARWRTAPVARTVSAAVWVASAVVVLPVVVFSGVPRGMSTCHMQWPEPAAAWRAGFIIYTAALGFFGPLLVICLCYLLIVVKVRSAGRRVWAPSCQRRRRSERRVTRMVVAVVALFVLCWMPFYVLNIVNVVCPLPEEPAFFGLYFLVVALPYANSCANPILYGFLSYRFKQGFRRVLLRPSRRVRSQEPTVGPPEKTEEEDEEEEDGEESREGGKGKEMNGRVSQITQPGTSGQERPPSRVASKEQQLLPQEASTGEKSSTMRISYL
# ASSAY NOTES: Somatostatin receptor radioligand binding assay, hsst3
# CONDITION DETAILS: CHO-K1 membranes, [125I-Tyr11]SS-14; read-out: hsst3 Ki
MEASURED ENDPOINT: pKi
A value of pKi is the negative decimal logarithm of a concentration given in moles per litre.

Example entries and their recorded answers appear below.
CCCN1C[C@H](CSCC(=O)N[C@H](Cc2ccccc2)C(=O)N[C@H]2CSSC[C@@H](C(=O)N[C@H](C(N)=O)[C@@H](C)O)NC(=O)[C@H](C(C)C)NC(=O)[C@H](CCCCN)NC(=O)[C@@H](Cc3c[nH]c4ccccc34)NC(=O)[C@H](Cc3ccc(O)c(I)c3)NC2=O)C[C@@H]2c3cccc4[nH]cc(c34)C[C@H]21 [Example 26] : 6.87
CCCN1C[C@H](CSCC(=O)NCCN2CCN(CC(=O)N[C@H](Cc3ccccc3)C(=O)N[C@H]3CSSC[C@@H](C(=O)N[C@H](C(N)=O)[C@@H](C)O)NC(=O)[C@H](C(C)C)NC(=O)[C@H](CCCCN)NC(=O)[C@@H](Cc4c[nH]c5ccccc45)NC(=O)[C@H](Cc4ccc(O)c(I)c4)NC3=O)CC2)C[C@@H]2c3cccc4[nH]cc(c34)C[C@H]21 [Example 25] : 6.37

Now look at this one.
I'm curious: which pKi was measured for CCCN1C[C@H](CSCC(=O)N[C@H](Cc2ccccc2)C(=O)N[C@H]2CSSC[C@@H](C(=O)N[C@H](C(N)=O)[C@@H](C)O)NC(=O)[C@H](CC)NC(=O)[C@H](CCCCN)NC(=O)[C@@H](Cc3c[nH]c4ccccc34)NC(=O)[C@H](Cc3ccc(O)cc3)NC2=O)C[C@@H]2c3cccc4[nH]cc(c34)C[C@H]21 [Example 31] tested on hsst3 (Homo sapiens)? 7.07

###

# EXPERIMENTAL SYSTEM: hsst2 (Homo sapiens, UniProt P30874)
# Construct: expressed in transfected cells
# Sequence (P30874 whole entry): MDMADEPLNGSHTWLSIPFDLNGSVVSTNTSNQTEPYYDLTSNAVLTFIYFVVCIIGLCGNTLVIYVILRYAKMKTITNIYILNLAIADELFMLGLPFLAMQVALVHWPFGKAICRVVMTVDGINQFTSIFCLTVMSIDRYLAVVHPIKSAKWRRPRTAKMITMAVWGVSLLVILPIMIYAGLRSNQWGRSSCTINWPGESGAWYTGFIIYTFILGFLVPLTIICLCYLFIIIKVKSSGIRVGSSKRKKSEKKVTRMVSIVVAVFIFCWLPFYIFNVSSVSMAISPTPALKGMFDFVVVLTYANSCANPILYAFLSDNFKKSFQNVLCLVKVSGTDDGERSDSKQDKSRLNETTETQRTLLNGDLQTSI
# ASSAY NOTES: Somatostatin receptor radioligand binding assay, hsst2
# CONDITION DETAILS: CHO-K1 membranes, [125I]MK-678; read-out: hsst2 Ki
MEASURED ENDPOINT: pKi
Quick note: pKi values are minus log10 of concentrations in mol/L.

Quick check: pKi of "CCCN1C[C@H](CSCC(=O)NCCCC[C@H](NC(=O)CSC[C@@H]2C[C@@H]3c4cccc5[nH]cc(c45)C[C@H]3N(CCC)C2)C(=O)N[C@H](Cc2ccccc2)C(=O)N[C@H]2CSSC[C@@H](C(=O)N[C@H](C(N)=O)[C@@H](C)O)NC(=O)[C@H](CC)NC(=O)[C@H](CCCCN)NC(=O)[C@@H](Cc3c[nH]c4ccccc34)NC(=O)[C@H](Cc3ccc(O)cc3)NC2=O)C[C@@H]2c3cccc4[nH]cc(c34)C[C@H]21" ? 9.74

pKi for "C=CCN1C[C@H](C(=O)N(CCCN(C)CC(=O)N[C@H](Cc2ccccc2)C(=O)N[C@H]2CSSC[C@@H](C(=O)N[C@H](C(N)=O)[C@@H](C)O)NC(=O)[C@H](CC)NC(=O)[C@H](CCCCN)NC(=O)[C@@H](Cc3c[nH]c4ccccc34)NC(=O)[C@H](Cc3ccc(O)cc3)NC2=O)C(=O)NCC)C[C@@H]2c3cccc4[nH]cc(c34)C[C@H]21" ? 9.29

Name the reported pKi value associated with the molecule "CC[C@@H]1NC(=O)[C@H](CCCCN)NC(=O)[C@@H](Cc2c[nH]c3ccccc23)NC(=O)[C@H](Cc2ccc(O)cc2)NC(=O)[C@@H](NC(=O)[C@@H](Cc2ccccc2)NC(=O)CSC[C@@H]2C[C@@H]3c4cccc5[nH]cc(c45)C[C@H]3N(C)C2)CSSC[C@@H](C(=O)N[C@H](C(N)=O)[C@@H](C)O)NC1=O" 9.82

###

# EXPERIMENTAL SYSTEM: hsst5 (Homo sapiens, UniProt P35346)
# Construct: expressed in transfected cells
# Sequence (P35346 whole entry): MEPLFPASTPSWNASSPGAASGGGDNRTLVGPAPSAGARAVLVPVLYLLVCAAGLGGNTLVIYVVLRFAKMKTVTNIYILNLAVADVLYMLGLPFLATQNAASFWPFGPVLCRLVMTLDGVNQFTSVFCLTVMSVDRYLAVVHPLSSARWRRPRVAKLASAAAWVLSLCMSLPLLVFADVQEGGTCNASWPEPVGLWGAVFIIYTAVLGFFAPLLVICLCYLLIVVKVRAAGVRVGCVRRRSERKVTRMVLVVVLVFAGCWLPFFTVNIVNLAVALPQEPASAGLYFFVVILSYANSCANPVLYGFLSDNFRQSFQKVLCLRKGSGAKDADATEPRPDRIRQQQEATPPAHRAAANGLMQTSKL
# ASSAY NOTES: Somatostatin receptor radioligand binding assay, hsst5
# CONDITION DETAILS: CHO-K1 membranes, [125I-Tyr11]SS-14; read-out: hsst5 Ki
Bridge positions count the residues as written; N and C are the ends. Square brackets hold non-standard residues; d marks the D form. Peptide text beside a SMILES is read from it. * marks the point of attachment. X1 = CCCN1C[C@H](CSCC(=O)*)C[C@@H]2c3cccc4[nH]cc(c34)C[C@H]21; Abu = CC[C@H](N)C(=O)O
The following compounds are shown together with reported pKi values.
Please keep in mind that pKi is minus log10 of the molar concentration; only the number is needed.

Notebook entry, hsst5 (Homo sapiens, UniProt P35346) assay: pKi of CC[C@@H]1NC(=O)[C@H](CCCCN)NC(=O)[C@@H](Cc2c[nH]c3ccccc23)NC(=O)[C@H](Cc2ccc(O)cc2)NC(=O)[C@@H](NC(=O)[C@@H](Cc2ccccc2)NC(=O)CN2CCN(CCNC(=O)CSC[C@@H]3C[C@@H]4c5cccc6[nH]cc(c56)C[C@H]4N(C)C3)CC2)CSSC[C@@H](C(=O)N[C@H](C(N)=O)[C@@H](C)O)NC1=O [Example 38] = ? 7.55

Fill in the recorded pKi for this compound, with hsst5 (Homo sapiens, UniProt P35346) as test system: CCNC(=O)N(CCCN(C)CC(=O)N[C@H](Cc1ccccc1)C(=O)N[C@H]1CSSC[C@@H](C(=O)N[C@H](C(N)=O)[C@@H](C)O)NC(=O)[C@H](CC)NC(=O)[C@H](CCCCN)NC(=O)[C@@H](Cc2c[nH]c3ccccc23)NC(=O)[C@H](Cc2ccc(O)cc2)NC1=O)C(=O)[C@H]1CN[C@@H]2Cc3c[nH]c4cccc(c34)[C@H]2C1 [Example 7] 7.54

Given the entry CC[C@@H]1NC(=O)[C@H](CCCCN)NC(=O)[C@@H](Cc2c[nH]c3ccccc23)NC(=O)[C@H](Cc2ccc(O)cc2)NC(=O)[C@@H](NC(=O)[C@@H](Cc2ccccc2)NC(=O)[C@@H](N)Cc2ccc(O)c(O)c2)CSSC[C@@H](C(=O)N[C@H](C(N)=O)[C@@H](C)O)NC1=O [Example 19] , what pKi was observed with hsst5 (Homo sapiens, UniProt P35346)? 7.71

What reported pKi corresponds to CCCN1C[C@H](CSCC(=O)NCCCC[C@H](NC(=O)CSC[C@@H]2C[C@@H]3c4cccc5[nH]cc(c45)C[C@H]3N(CCC)C2)C(=O)N[C@H](Cc2ccc(O)cc2)C(=O)N[C@H](Cc2ccc(O)cc2)C(=O)N[C@H]2CSSC[C@@H](C(=O)N[C@H](C(N)=O)[C@@H](C)O)NC(=O)[C@H](CC)NC(=O)[C@H](CCCCN)NC(=O)[C@@H](Cc3c[nH]c4ccccc34)NC(=O)[C@H](Cc3ccc(O)cc3)NC2=O)C[C@@H]2c3cccc4[nH]cc(c34)C[C@H]21 [Example 10] (X1-K(X1)[dY][dY]CY[dW]K[Abu]CT-NH2; disulfide 4-9) on hsst5 (Homo sapiens, UniProt P35346)? 7.58

###

# Ki listing for each entry below
# EXPERIMENTAL SYSTEM: hsst2 (Homo sapiens)
# Construct: expressed in transfected cells
# ASSAY NOTES: Somatostatin receptor radioligand binding assay, hsst2
# CONDITION DETAILS: CHO-K1 membranes, [125I]MK-678; read-out: hsst2 Ki
Numbered stars: 1 amine (or outer) side, 2 acyl side, 3 side chain; on linkers, the order of the positions; unused ones are H or OH. Bridge positions count the residues as written; N and C are the ends. Square brackets hold non-standard residues; d marks the D form. Peptide text beside a SMILES is read from it. * marks the point of attachment. X3 = CCCN1C[C@H](CSCC(=O)Oc2ccc(C[C@H](N[*:1])C(=O)[*:2])cc2I)C[C@@H]2c3cccc4[nH]cc(c34)C[C@H]21; X1 = CCCN1C[C@H](CSCC(=O)*)C[C@@H]2c3cccc4[nH]cc(c34)C[C@H]21; AEEA = NCCOCCOCC(=O)O
Please give a number only; it is taken to be in nM.

CCCN1C[C@H](CSCC(=O)NCCN2CCN(CC(=O)N[C@H](Cc3ccccc3)C(=O)N[C@H]3CSSC[C@@H](C(=O)N[C@H](C(N)=O)[C@@H](C)O)NC(=O)[C@H](C(C)C)NC(=O)[C@H](CCCCN)NC(=O)[C@@H](Cc4c[nH]c5ccccc45)NC(=O)[C@H](Cc4ccc(O)c(I)c4)NC3=O)CC2)C[C@@H]2c3cccc4[nH]cc(c34)C[C@H]21 [Example 25] : 1.09
CCCN1C[C@H](CSCC(=O)N[C@H](Cc2ccccc2)C(=O)NCCOCCOCC(=O)N[C@H](Cc2ccccc2)C(=O)N[C@H]2CSSC[C@@H](C(=O)N[C@H](C(N)=O)[C@@H](C)O)NC(=O)[C@H](C(C)C)NC(=O)[C@H](CCCCN)NC(=O)[C@@H](Cc3c[nH]c4ccccc34)NC(=O)[C@H](Cc3ccc(OC(=O)CSC[C@@H]4C[C@@H]5c6cccc7[nH]cc(c67)C[C@H]5N(CCC)C4)c(I)c3)NC2=O)C[C@@H]2c3cccc4[nH]cc(c34)C[C@H]21 [Example 5] (X1-[dF][AEEA][dF]C[X3][dW]KVCT-NH2; disulfide 4-9) : 1.65

Shift focus to the following entry.
Param item = CC[C@@H]1NC(=O)[C@H](CCCCN)NC(=O)[C@@H](Cc2c[nH]c3ccccc23)NC(=O)[C@H](Cc2ccc(O)cc2)NC(=O)[C@@H](NC(=O)[C@@H](Cc2ccccc2)NC(=O)[C@@H](N)Cc2ccc(O)c(O)c2)CSSC[C@@H](C(=O)N[C@H](C(N)=O)[C@@H](C)O)NC1=O [Example 19] ; retrieve measured Ki. 0.41
